Recorded IC50 for the following compounds
Biological target: EGFR (L858R & T790M) (Homo sapiens, UniProt P00533, L858R/T790M)
Construct: GST
Sequence (P00533 25-1210 T790M/L858R): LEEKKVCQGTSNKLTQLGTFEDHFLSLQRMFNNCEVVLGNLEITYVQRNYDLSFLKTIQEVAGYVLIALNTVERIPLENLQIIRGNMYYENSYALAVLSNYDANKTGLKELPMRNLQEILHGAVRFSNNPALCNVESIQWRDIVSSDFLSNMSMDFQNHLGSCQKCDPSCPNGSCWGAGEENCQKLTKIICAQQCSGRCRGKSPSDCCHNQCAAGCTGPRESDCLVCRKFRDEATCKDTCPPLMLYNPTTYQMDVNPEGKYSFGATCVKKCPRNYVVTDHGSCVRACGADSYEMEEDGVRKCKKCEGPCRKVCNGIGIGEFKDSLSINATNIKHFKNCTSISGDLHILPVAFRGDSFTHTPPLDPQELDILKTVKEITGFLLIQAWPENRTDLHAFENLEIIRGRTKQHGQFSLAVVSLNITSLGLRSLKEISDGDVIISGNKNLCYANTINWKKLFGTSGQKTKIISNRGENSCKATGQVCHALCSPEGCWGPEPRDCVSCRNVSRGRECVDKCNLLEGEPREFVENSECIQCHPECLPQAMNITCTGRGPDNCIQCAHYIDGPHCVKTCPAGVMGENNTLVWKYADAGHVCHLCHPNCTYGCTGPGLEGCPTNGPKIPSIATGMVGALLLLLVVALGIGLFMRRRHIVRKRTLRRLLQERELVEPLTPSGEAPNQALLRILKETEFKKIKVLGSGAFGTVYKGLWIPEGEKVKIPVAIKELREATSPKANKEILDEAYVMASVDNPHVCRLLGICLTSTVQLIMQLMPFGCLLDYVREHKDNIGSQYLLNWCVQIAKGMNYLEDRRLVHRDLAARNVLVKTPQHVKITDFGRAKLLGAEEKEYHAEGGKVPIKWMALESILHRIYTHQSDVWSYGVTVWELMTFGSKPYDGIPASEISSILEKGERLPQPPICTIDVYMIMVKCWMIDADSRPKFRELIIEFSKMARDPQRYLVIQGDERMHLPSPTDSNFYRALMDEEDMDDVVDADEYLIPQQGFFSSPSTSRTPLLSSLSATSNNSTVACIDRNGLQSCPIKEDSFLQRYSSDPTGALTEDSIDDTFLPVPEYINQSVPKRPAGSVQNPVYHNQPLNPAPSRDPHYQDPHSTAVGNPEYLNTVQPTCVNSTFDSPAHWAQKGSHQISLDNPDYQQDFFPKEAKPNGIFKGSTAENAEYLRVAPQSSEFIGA
Assay: EGFR (L858R & T790M) inhibition assay, HTRF method
Conditions: biochemical HTRF; EGFR (T790M/L858R) 2.5 nM, ATP 5 μM, 60 min room temperature

Please review the following examples before continuing.
COMPOUND: C=CC(=O)N[C@H]1CCC[C@H](Nc2nc(Nc3cnn(C)c3)ncc2Cl)C1 (single isomer, unassigned) [I-107 (Enantiomer 2)]
IC50: > 100 nM

COMPOUND: C=CC(=O)Nc1cccc(Oc2nc(Nc3cnn(CCO)c3)ncc2Cl)c1 [Compound I-47]
IC50: < 10 nM

COMPOUND: C=CC(=O)N[C@@H]1CCC[C@H](Nc2nc(Nc3cnn(C)c3)ncc2Cl)C1 (single isomer, unassigned) [I-105 (Enantiomer 4)]
IC50: > 100 nM

COMPOUND: C=CC(=O)Nc1cccc(Oc2nc(Nc3cnn(CC4CC4)c3)ncc2Cl)c1 [Compound I-82]
IC50: 10 to 100 nM

Problem: Requested field: IC50. Item: C=CC(=O)N[C@H]1CCC[C@@H](Nc2nc(Nc3cnn(C)c3)ncc2Cl)C1 (single isomer, unassigned) [I-104 (Enantiomer 3)]
Solution: 10 to 100 nM

Problem: Also, CN(C)C/C=C/C(=O)N[C@@H]1CCC[C@@H](CNc2nc(Nc3cnn(C)c3)ncc2Cl)C1 (single isomer, unassigned) [I-102 (diastereomer 1)] please.
Solution: > 100 nM

Problem: Check C=CC(=O)Nc1cccc(Nc2nc(Nc3cnn(CC(C)(C)O)c3)ncc2Cl)c1 [Compound I-17] too.
Solution: > 100 nM

Problem: Subsequent entry: CN1CCC(n2cc(Nc3ncc(Cl)c(Nc4cccc(NC(=O)C=C5CCC5)c4)n3)cn2)CC1 [Compound I-29]
Solution: > 100 nM

Problem: Same lookup for C=CC(=O)N1CCCC(Oc2nc(Nc3cnn(C)c3)ncc2Cl)C1 (single isomer, unassigned) [II-13 (Enantiomer 2)] , please.
Solution: > 100 nM

Measured values drawn from patent US10273224B2 for this set.
